- target.system: Bromodomain-containing protein 4 (Homo sapiens)
- stated.conditions: Compound concentration 20.0 uM, Protein concentration 2.0 uM, Result type QC Liability
parameter.measured: ΔTm (°C)
Please reply with the bare figure in °C and do not write the unit itself.

chemical.structure	unit.name	ΔTm
Cc1cc(OC2CCS(=O)(=O)CC2)cc(C)c1-c1cccc(COc2ccc(C(=O)O)c(F)c2)c1	°C	-3.26
Nc1c(CC(=O)O)cccc1C(=O)c1ccc(Br)cc1	°C	-0.6
CCN(C)C(=O)c1ccc2c(c1)NC(=O)/C2=C(\NC1CCN(C)CC1)c1ccccc1	°C	0.55
C[C@H](CCOc1cccc(CC(=O)O)c1)N(Cc1cccc(C(F)(F)F)c1Cl)CC(c1ccccc1)c1ccccc1	°C	-6.66
COc1cc(CN(CCN)C(=O)N[C@@H](C)c2ccccc2)ccc1OCc1ccccc1	°C	-1.26

Tell me the measured ΔTm of "Cn1nc(-c2ccc(C(N)=O)cc2)c2ccccc2c1=O" , please.
0.79

What value of measured ΔTm is listed for "COc1ccc(COc2ccc(Cc3cnc(N)nc3N)cc2OC)cc1" ?
-1.17

Looking for the measured ΔTm of "COc1ccc(CC[C@@H](OC(=O)[C@H]2CCCCN2C(=O)[C@@H](c2cc(OC)c(OC)c(OC)c2)C2CCCCC2)c2cccc(OCCN3CCOCC3)c2)cc1OC" , can you help?
-4.83

Returns the measured ΔTm for the input compound. Input: "CCN1CCN(Cc2ccc(C(=O)Nc3ccc(C)c(Oc4ccc5c(c4)CC(=O)N5)c3)cc2C(F)(F)F)CC1"
-2.44

====

- target.system: Transcription intermediary factor 1-alpha (Homo sapiens)
- stated.conditions: Compound concentration 20.0 uM, Protein concentration 2.0 uM, Result type QC Liability
parameter.measured: ΔTm (°C)
Enter your answer as a number in °C; do not include the unit.

compound	unit.name	ΔTm
FC(F)c1cncc(-c2ccc3ncc4nnc(C5=CCCOCC5)n4c3c2)c1	°C	0.23
CCN1C(=O)N(c2c(F)c(OC)cc(OC)c2F)Cc2cnc3[nH]c(CN4CCOCC4)cc3c21	°C	-3.85

Proceed to the following item.
If you can, please state the reported ΔTm value of "O=C(O)c1cc(F)c2nc(N3[C@@H]4CC[C@H]3C[C@@H](OCc3c(-c5ccccc5OC(F)(F)F)noc3C3CC3)C4)sc2c1" .
-1.62

====

Readings of ΔTm for the listed compounds
- target.system: Transcription intermediary factor 1-alpha (Homo sapiens) (UniProt O15164)
- Sequence (O15164 whole entry): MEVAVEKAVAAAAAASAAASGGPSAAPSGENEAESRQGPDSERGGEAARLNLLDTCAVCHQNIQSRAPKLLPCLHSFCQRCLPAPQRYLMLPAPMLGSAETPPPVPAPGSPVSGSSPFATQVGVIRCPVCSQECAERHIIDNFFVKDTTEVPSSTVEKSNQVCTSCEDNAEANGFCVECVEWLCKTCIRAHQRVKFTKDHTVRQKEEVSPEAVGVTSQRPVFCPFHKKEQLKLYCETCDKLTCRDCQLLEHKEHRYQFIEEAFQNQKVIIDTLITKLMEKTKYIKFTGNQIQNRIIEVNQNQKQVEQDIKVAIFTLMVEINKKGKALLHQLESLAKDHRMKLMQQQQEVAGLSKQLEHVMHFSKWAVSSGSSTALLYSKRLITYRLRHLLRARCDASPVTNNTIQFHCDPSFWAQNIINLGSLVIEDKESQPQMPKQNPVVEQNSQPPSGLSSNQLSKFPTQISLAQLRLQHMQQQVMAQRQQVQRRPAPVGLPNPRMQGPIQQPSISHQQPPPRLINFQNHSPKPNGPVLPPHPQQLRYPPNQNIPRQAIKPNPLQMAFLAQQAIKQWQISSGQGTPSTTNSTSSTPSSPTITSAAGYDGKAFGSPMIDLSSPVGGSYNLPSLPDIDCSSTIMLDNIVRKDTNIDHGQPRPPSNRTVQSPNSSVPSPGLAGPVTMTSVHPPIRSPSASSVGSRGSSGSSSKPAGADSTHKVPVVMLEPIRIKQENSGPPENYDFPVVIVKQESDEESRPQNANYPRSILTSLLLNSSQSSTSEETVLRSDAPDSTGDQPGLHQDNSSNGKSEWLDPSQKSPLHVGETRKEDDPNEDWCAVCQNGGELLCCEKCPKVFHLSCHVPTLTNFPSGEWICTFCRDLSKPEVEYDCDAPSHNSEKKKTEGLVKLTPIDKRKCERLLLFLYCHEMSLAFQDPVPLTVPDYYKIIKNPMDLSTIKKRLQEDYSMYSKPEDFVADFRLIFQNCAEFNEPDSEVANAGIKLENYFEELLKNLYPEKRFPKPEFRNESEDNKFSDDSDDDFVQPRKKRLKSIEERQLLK
- stated.conditions: Compound concentration 20.0 uM, Protein concentration 2.0 uM, Result type QC Liability
Express it in °C; write the number only.

Solved cases (5 shown):
chemical.structure	ΔTm [°C]
C[C@H](CCC(=O)O)[C@H]1CC[C@H]2[C@@H]3CC[C@@H]4C[C@H](O)CC[C@]4(C)[C@H]3C[C@H](O)[C@]12C	-3.23
Nc1c(CC(=O)O)cccc1C(=O)c1ccc(Br)cc1	-0.77
C[C@H](CCC(=O)O)[C@H]1CC[C@H]2[C@@H]3[C@H](O)C[C@@H]4C[C@H](O)CC[C@]4(C)[C@H]3C[C@H](O)[C@]12C	-2.48
CCCN1C(=O)c2ccc(Cl)cc2Nc2ncccc21	0.51
CC(C)(O)c1cn(-c2ccc(-c3cccc(S(C)(=O)=O)c3)cc2)c(C(C)(C)c2ccccc2Cl)n1	-3.39

Look up ΔTm for this compound: "N#Cc1cccc(-c2c[nH]c3ncnc(N4CCOCC4)c23)c1"
-2.93

Would you mind telling me what ΔTm value was observed for "CCC(=O)N[C@@H]1CC[C@H](C(=O)N(C)c2ccc(-c3nc4ccccc4o3)cc2)C1" ?
0.25

Recorded ΔTm of "CC(C)c1nc2c(c3c1[C@H](c1ccc(C(F)(F)F)cc1)OC31CCOCC1)[C@H](O)CC(C)(C)C2" , please.
0.26

Reported ΔTm, compound "O=C1CCCN1CCNc1nc(Nc2ccc(Cl)c(Cl)c2)ncc1C(F)(F)F" : ____
-1.81

====

- target.system: Bromodomain-containing protein 4 (Homo sapiens)
- stated.conditions: Compound concentration 20.0 uM, Protein concentration 2.0 uM, Result type QC Liability
Output Condition met for ΔTm not less than -0.3 °C; output Condition not met otherwise.

Here's what some known entries look like.
molecule	target.system	class.label
CCCS(=O)(=O)N[C@H]1C[C@@H](N(C)c2ncnc3[nH]ccc23)C1	Bromodomain-containing protein 4 (Homo sapiens)	Condition not met
O=C(Nc1ccc(Cl)c(-c2ccccn2)c1)c1cccc(COc2ccc(Br)cc2CNCCO)c1	Bromodomain-containing protein 4 (Homo sapiens)	Condition not met

Does the molecule "CO[C@H]1CC[C@H](N(c2cc(F)c(Oc3ncc(Cn4nccn4)cc3C(F)(F)F)cc2C(=O)O)C(=O)[C@H]2CC[C@H](C)CC2)CC1" have recorded ΔTm that is -0.3 °C or more?
Condition met

Decide: ΔTm of "C[C@H](NC(=O)c1cnc2n1[C@](C)(Cc1ccc(C#N)cc1)C(=O)N2c1cc(Cl)c(F)c(Cl)c1)C(=O)NC1(c2ccccn2)CC1" >= -0.3 °C?
Condition met

For this molecule, is measured ΔTm -0.3 °C or higher? "O=c1cc(C2CCNCC2)n2nc3cccc(Cl)c3c2[nH]1"
Condition not met

Has "NC(=O)c1ccc(-c2nc(-c3ccc4c(c3)OCCO4)c(-c3ccccn3)[nH]2)cc1" a recorded ΔTm greater than or equal to -0.3 °C?
Condition not met

I'd appreciate it if you could say whether "O=C(O)CCCCN(CCc1cc(F)ccc1OCc1ccc(-c2ccc(C(F)(F)F)cc2)cc1)Cc1ccc(C(=O)O)cc1" has ΔTm at least equal to -0.3 °C.
Condition met

====

- target.system: Bromodomain-containing protein 4 (Homo sapiens)
- stated.conditions: Compound concentration 20.0 uM, Protein concentration 2.0 uM, Result type QC Liability
# key: entry, value: ΔTm
Numbers only here, please. The scale is °C.

compound	assay.result
NC(=O)c1ccccc1Nc1nc(-c2ccc(N3CCOCC3)cc2)cc2ncccc12	-2.32

Item "COc1ccc(N(C(=O)Nc2c(C)cccc2C)c2cc(Nc3ccc(N4CCN(C)CC4)cc3)ncn2)c(OC)c1" has what recorded ΔTm?
2.62

# ΔTm lookup, item C[S+]([O-])c1ccc(-c2nc(-c3cccc(I)c3)c(-c3ccncc3)[nH]2)cc1 (centres undefined)
-3.51

If you can, please state the reported ΔTm value of "CC(C)[C@H](CO)Nc1nc(Nc2ccc(C(=O)O)c(Cl)c2)c2ncn(C(C)C)c2n1" .
0.61

====

- target.system: Bromodomain-containing protein 4 (Homo sapiens) (UniProt O60885)
- stated.conditions: Compound concentration 20.0 uM, Protein concentration 2.0 uM, Result type QC Liability
parameter.measured: ΔTm (°C)
Return type: number; implicit unit °C.

Some molecules with recorded ΔTm:
molecule	target.system	parameter.measured	assay.result
O=C(O)CCCN1CCC[C@H]1COc1ccc(Oc2ccc(Cl)cc2)cc1	Bromodomain-containing protein 4 (Homo sapiens) (UniProt O60885)	ΔTm	-2.86
CN(C)C/C=C/C(=O)Nc1cc2c(Nc3ccc(F)c(Cl)c3)ncnc2cc1OC[C@@H]1CCCO1	Bromodomain-containing protein 4 (Homo sapiens) (UniProt O60885)	ΔTm	-0.58
CO[C@H]1C[C@@H]2CC[C@@H](C)[C@@](O)(O2)C(=O)C(=O)N2CCCC[C@H]2C(=O)O[C@H]([C@H](C)C[C@@H]2CC[C@@H](O)[C@H](OC)C2)CC(=O)[C@H](C)/C=C(\C)[C@@H](O)[C@@H](OC)C(=O)[C@H](C)C[C@H](C)/C=C/C=C/C=C/1C	Bromodomain-containing protein 4 (Homo sapiens) (UniProt O60885)	ΔTm	-2.02

Lookup: ΔTm / Bromodomain-containing protein 4 (Homo sapiens) (UniProt O60885) / CCOC(=O)N1CCC(CN(Cc2ccc(Cl)cc2)Cc2ccc([N+](=O)[O-])s2)C1 (centres undefined)
-2.61

Value wanted: ΔTm (Bromodomain-containing protein 4 (Homo sapiens) (UniProt O60885)) of entry "Cc1nc2cccnc2n2c(-c3cc(C(C)(C)O)ncc3Cl)nnc12"
-1.96

Look up ΔTm with Bromodomain-containing protein 4 (Homo sapiens) (UniProt O60885) for this molecule: "c1ccc(C2CCN(c3cnc4c(N5CCOCC5)nccn34)CC2)cc1"
-0.69

Provide the documented ΔTm with Bromodomain-containing protein 4 (Homo sapiens) (UniProt O60885) as the system for "CCOC(=O)/N=C(\N)c1ccc(OCc2cccc(COc3ccc(C(C)(C)c4ccc(OC(=O)OCC)cc4)cc3)c2)cc1"
-10.4

Give Bromodomain-containing protein 4 (Homo sapiens) (UniProt O60885) ΔTm for "COc1cc(Cl)c(C(=O)N[C@@H](CN[C@H]2CC[C@@H](N)CC2)Cc2ccc(C#N)cc2)cc1-c1ccc(CN[C@H](C)c2ccc(C)cc2)o1"
-1.12

Record "COc1ccccc1[C@@H]1CNCCC12CCN(C(=O)[C@](OC)(c1ccccc1)C(F)(F)F)CC2" : what is its ΔTm with Bromodomain-containing protein 4 (Homo sapiens) (UniProt O60885)?
-0.33
